- System: U-251
- procedure details: NCI tumour cell line growth inhibition, 48 h
Calls of active or inactive are those of the source. Cut-off read from the data, not from the text of the source: active = GI50 up to about 1.1 µM and inactive = higher.
measure name: GI50

For record `Cc1nc2c(o1)/C(=N\c1ccccc1)c1ccccc1C2=O` the listed GI50 is 3.61 µM (inactive)

Given item `N#Cc1c(C#N)c(SSc2c(C#N)c(C#N)c(N)n2-c2ccccc2)n(-c2ccccc2)c1N` , the value recorded as its GI50 is 21.6 µM (inactive)

Record summary for CCCCCCCCCCCCCC(=O)N(CCCCCCCCC)CC(O)C(O)C(OC1OC(CO)C(O)C(O)C1O)C(O)CO (stereo not given) : reported GI50 = 22.5 µM (inactive)

Quick note, GI50 for `COc1ccc([C@@H]2CC(=O)NCCCNCCCCNCCCN2)cc1` landed at > 100 µM (inactive)

The reported GI50 of the compound O=C(c1ccccc1)c1ccc2c(c1)nc1n2C(c2c(F)cccc2F)SC1 (stereo not given) was 28.8 µM (inactive)

----------
- Test system: CAKI-1
- procedure details: NCI tumour cell line growth inhibition, 48 h
Active and inactive are the calls of the source. Rule as the data show it: active = GI50 up to about 1.1 µM and inactive = higher.
// allowed return values: active, inactive

Per the assay record, what outcome was assigned to CC(=O)N/C(=C\c1ccc(/C=C(\NC(C)=O)C2=NC3C(=O)c4ccccc4C(=O)C3N2)cc1)C1=NC2C(=O)c3ccccc3C(=O)C2N1 (centres undefined) ?
inactive

What outcome does the record of this test show for `C[C@H]1CC(=O)C2=CCCC3(SCCCS3)[C@@H]2[C@H]1CO` ?
inactive

Recorded test outcome, item `COc1ccccc1/C=C1\NC(=S)N(/C=C2\C(=O)Oc3ccccc3C2=O)C1=O`
inactive

Test call for this molecule, please: `O=C(COc1ccccc1)N(C(=O)N1CCN(c2ccccc2)CC1)S(=O)(=O)c1ccccc1`
inactive

Recorded test call requested for CC(C)(C)OC(=O)NC(Cc1ccccc1)OCc1ccccc1 (centres undefined)
inactive

Could you kindly confirm the outcome this assay logged for `CN(C)c1nncc2[nH]nnc12` ?
inactive

Please state the recorded outcome for this molecule: `COc1ccc2nc3cc(Cl)ccc3c(NCCCN(CCCl)CCCl)c2c1`
active

Write down the call the test reported for this molecule. Item: O=C1/C(=C/C=C/c2ccccc2)N=C(c2ccccc2)N1C1Nc2cc3c(cc2S1)NC(N1C(=O)/C(=C/C=C/c2ccccc2)N=C1c1ccccc1)S3 (centres undefined)
inactive

Can you look up the reported call for `Cc1ncc(COP(=O)(O)O)c(C)c1O` for me?
inactive

----------
- Test system: UO-31
- procedure details: NCI tumour cell line growth inhibition, 48 h
Activity calls are given as the source filed them. Rule as the data show it: active = GI50 up to about 1.1 µM and inactive = higher.
Field: GI50. Provide a value for each of the compounds that follow.

// field: GI50; key: `Clc1nc(Cl)c(Cl)c(Cl)n1` ; value = 24.5 µM (inactive)

Data point: `CCCCCC(=O)OC[n+]1ccc(-c2c(COC(=O)NC(C)C)c(COC(=O)NC(C)C)c3n2CCC3)cc1` ; GI50 = > 100 µM (inactive)

Form: compound = `c1ccc2c(c1)CCN2CCc1c[nH]c2ccccc12` ; GI50 = > 10 µM (inactive)

Record `CCN1CCc2sc3nc(S)n(C)c(=O)c3c2C1` . Reported GI50: > 100 µM (inactive)

get_value(item= `COc1ccc(C(=O)O)c2c(=O)c3ccccc3[nH]c12` , readout=GI50) returns > 100 µM (inactive)

Sample CC(C)(CN1CCCCC1)C(=O)CC(SCCN)c1ccc(Cl)cc1 (stereo not given) ; GI50 observed: 3.35 µM (inactive)

Just so you know, measured GI50 for `O=C1c2ccccc2C(=O)c2sc(Nc3cccc(Cl)c3)nc21` came out at 2.3 µM (inactive)

Reported GI50 of Cc1ccc(C(CC(=O)C(C)(C)CN2CCCCC2)SCCS(=O)(=O)O)cc1 (stereo not given) : 25.2 µM (inactive)

Entry Cc1c2n(c(=O)[nH]c1=O)C1OC(CO)C(O2)C1N=[N+]=[N-] (stereo not given) ; GI50 = > 100 µM (inactive)

The compound identified as O=C(OC1OC2COC(=O)c3cc(O)c(O)c(O)c3-c3c(cc(O)c(O)c3O)C(=O)OC3C2OC(=O)[C@@]24CC(=O)[C@@](O)(OC25C(=O)O[C@H]2[C@@H](O)CO[C@@]25O)C2(O)Oc5c(O)c(O)cc(c5C24)C(=O)OC13)c1cc(O)c(O)c(O)c1 (stereo not given in full) registered its GI50 at 34.8 µM (inactive)
